Hello, the source for this data is patent US20090291081A1, in case you need it.

Tested Target: T1, human IL-1α (human, UniProt P01583 113-271)
T1 construct: also called IL-1alpha; hIL-1α
T1 sequence (looked up): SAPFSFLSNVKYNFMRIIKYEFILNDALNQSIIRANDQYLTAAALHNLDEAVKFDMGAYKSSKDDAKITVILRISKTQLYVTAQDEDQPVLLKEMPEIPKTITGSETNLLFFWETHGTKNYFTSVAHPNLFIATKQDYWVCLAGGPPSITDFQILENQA
Measurement Description: Table 62 IC50; RBA presumed
Property Name: IC50 (nM)

Guide cases for IC50, answers given:
{"columns": ["Binder", "Unit Annotation", "IC50"],
 "data": [
  ["ABT1-95-42 (other, VK dAb) VL: DIQMTQSPSSLSASVGDRVTITCRASFPIVRNLRWYQQKPGKAPKLLIYSSSYLEPGVPSRFSGSGSGTDFTLTISSLQPEDFATYHCQQGYRWPVTFGQGTKVEIKR", "nM", 0.1],
  ["ABT1-139 (other, VH dAb) VH: EVQLLESGGGLVQPGGSLRLSCAASGFTFSDYTMIWVRQAPGKGLEWVSSISARGWGTYYADSVKGRFTISRDNSKNTLYLQMNSLRAEDTAVYYCAKGSPQLVLPFDYWGQGTLVTVSS", "nM", 80]
]}

I. ABT1-95-107 (other, VK dAb) VL: DIQMTQSPSSLSASVGDRVTITCRASQPIVRNLRWYQQKPGKAPKLLIYSSSYLEHGVPSRFSGSGSGTDFTLTISSLQPEDFATYHCQQGYRWPVTFGQGTKVEIKR
II. ABT1-95-63 (other, VK dAb) VL: DIQMTQSPSSLSASVGDRVTITCRASQPIVRNLRWYQQKLGKAPKLLIFSSSYLEPGVPSRFSGSGSGTDFTLTISSLQPEDFATYHCQQGYRWPVTFGQGTKVEIKR
Of I and II , which one carries the higher reported IC50? Identify your pick by its label.
II
